# log10 of IC50 values compiled below
target: rat NaPi-2b (Rattus norvegicus); assay: Sodium-dependent phosphate uptake of Xenopus oocytes which expressed NaPi-2b (32P); conditions: Xenopus oocytes expressing rat NaPi-2b, 32P radioactive phosphorus; read-out: IC50 (phosphate uptake inhibitory activity)
Sequence (Q9JJ09 whole entry): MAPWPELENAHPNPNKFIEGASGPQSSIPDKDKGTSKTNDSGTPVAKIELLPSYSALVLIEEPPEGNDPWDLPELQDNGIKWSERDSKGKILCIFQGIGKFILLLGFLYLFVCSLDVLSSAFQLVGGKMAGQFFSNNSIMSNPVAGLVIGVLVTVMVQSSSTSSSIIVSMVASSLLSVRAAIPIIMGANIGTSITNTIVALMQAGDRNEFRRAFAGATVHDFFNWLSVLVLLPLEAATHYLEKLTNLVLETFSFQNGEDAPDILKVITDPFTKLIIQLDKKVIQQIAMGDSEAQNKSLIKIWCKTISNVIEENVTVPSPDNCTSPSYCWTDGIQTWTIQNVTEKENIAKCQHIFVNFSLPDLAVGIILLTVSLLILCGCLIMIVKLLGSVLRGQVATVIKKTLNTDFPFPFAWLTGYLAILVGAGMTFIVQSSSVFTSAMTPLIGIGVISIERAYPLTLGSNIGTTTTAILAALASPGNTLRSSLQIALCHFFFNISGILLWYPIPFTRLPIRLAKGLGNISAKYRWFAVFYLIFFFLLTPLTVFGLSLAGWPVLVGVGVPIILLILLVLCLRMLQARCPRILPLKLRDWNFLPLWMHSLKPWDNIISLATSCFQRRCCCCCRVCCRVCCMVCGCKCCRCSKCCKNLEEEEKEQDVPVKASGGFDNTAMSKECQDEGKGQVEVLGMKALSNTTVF
Use the decimal logarithm of IC50 (nM).

Need log10 of IC50, item O=C(Nc1ccc(N2CCCCC2)cc1C(=O)N/N=C/c1ccc(Cl)c(C(F)(F)F)c1)c1cccc(CSCCO)c1 [Compound 884]
2.98

Value lookup for log10 of IC50; key = Cc1ccc(/C=N/NC(=O)c2c(NC(=O)c3cccc(CN4CCC(CO)CC4)c3)sc3ccccc23)cc1 [Compound 799]
3.57

What measured log10 of IC50 goes with CC(O)CN(Cc1cccc(C(=O)Nc2ccc(N3CCCCC3)cc2C(=O)NN=Cc2ccc(Cl)c(C(F)(F)F)c2)c1)CC(C)O (centres unmarked) [Compound 942] ?
2.30

Suppose we examine the compound O=c1c2c3c(sc2nc(-c2cccc(CSc4nc[nH]n4)c2)n1/N=C/c1ccc(F)cc1)CCCC3 [Compound 648] ; what log10 of IC50 value has been reported?
3.31

###

target: rat NaPi-2b (Rattus norvegicus); experiment: Sodium-dependent phosphate uptake of Xenopus oocytes which expressed NaPi-2b (32P); conditions: Xenopus oocytes expressing rat NaPi-2b, 32P radioactive phosphorus; read-out: IC50 (phosphate uptake inhibitory activity)
// reported log10 of IC50 for each item listed
Annotation: log10 of IC50, µM basis.

Known results for compounds:
>  <COMPOUND>
Cc1csc(NC(=O)c2cccc(CN3CCN(c4ncccn4)CC3)c2)c1C(=O)N/N=C/c1ccc(Cl)c(C(F)(F)F)c1

>  <SYSTEM_UNDER_TEST>
rat NaPi-2b (Rattus norvegicus)

>  <READOUT_KIND>
log10 of IC50

>  <REPORTED_MEASUREMENT>
0.68

$$$$
>  <COMPOUND>
COc1ccc(C(=O)Nc2cc(Cl)ccc2C(=O)N/N=C/c2ccc(C)cc2)cc1OC

>  <SYSTEM_UNDER_TEST>
rat NaPi-2b (Rattus norvegicus)

>  <READOUT_KIND>
log10 of IC50

>  <REPORTED_MEASUREMENT>
0.33

$$$$
>  <COMPOUND>
CCN1CC(NCc2ccc(-c3nc4ccc(Br)cc4c(=O)n3/N=C/c3cccc(F)c3)cc2)CN1CC

>  <SYSTEM_UNDER_TEST>
rat NaPi-2b (Rattus norvegicus)

>  <READOUT_KIND>
log10 of IC50

>  <REPORTED_MEASUREMENT>
1.12

$$$$
>  <COMPOUND>
Cc1ccc(/C=N/NC(=O)c2cccnc2NC(=O)c2cccc(CN(CC(C)O)CC(C)O)c2)cc1 (stereo not drawn)

>  <SYSTEM_UNDER_TEST>
rat NaPi-2b (Rattus norvegicus)

>  <READOUT_KIND>
log10 of IC50

>  <REPORTED_MEASUREMENT>
1.43

$$$$
>  <COMPOUND>
COc1ccc(/C=N/NC(=O)c2c(C)csc2NC(=O)c2cccc(CN(CC(C)O)CC(C)O)c2)cc1 (stereo not drawn) [Compound 592]

>  <SYSTEM_UNDER_TEST>
rat NaPi-2b (Rattus norvegicus)

>  <READOUT_KIND>
log10 of IC50

>  <REPORTED_MEASUREMENT>
1.08

$$$$

Form field: reported log10 of IC50 of "O=C(Nc1sc2c(c1C(=O)N/N=C/c1cccc(F)c1)CCCC2)c1cccc(CSCCCO)c1"
-0.37

Value lookup for log10 of IC50; key = "O=c1c2c3c(sc2nc(-c2cccc(CSc4nc[nH]n4)c2)n1/N=C/c1ccc(Cl)c(C(F)(F)F)c1)CCCC3"
-0.02
